Just for reference, ChEMBL document CHEMBL4382259 is where these values come from.

- Test system: HeLa
- ASSAY INFO: Antiproliferative activity against human HeLa cells after 72 hrs by MTT assay
- Type: functional, cell-based
Each record here notes measured IC50.
Give the value in µM but do not write µM after it.

{"columns": ["SMILES REPR", "IC50, µM"],
 "data": [
  ["CC(C)=CC[C@H]1C[C@]23C[C@@H](CC=C(C)C)C(C)(C)[C@H]4CCC(C)(C)O[C@]42OC(=O)C(C(=O)c2ccc(OC(=O)c4ccc(F)cc4)c(OC(=O)c4ccc(F)cc4)c2)=C3OC1(C)C", 11.9],
  ["C=CC(=O)Oc1cc(C(=O)C2=C3OC(C)(C)[C@@H](CC=C(C)C)C[C@@]34C[C@@H](CC=C(C)C)C(C)(C)[C@@](CC=C(C)C)(C2=O)C4=O)ccc1O", 19.4]
]}

Request: Would you mind telling me what IC50 value was observed for `COc1ccc(C(=O)C2=C3OC(C)(C)[C@@H](CC=C(C)C)C[C@@]34C[C@@H](CC=C(C)C)C(C)(C)[C@@](CC=C(C)C)(C2=O)C4=O)cc1O` ?
Result: 10.9
